- EXPERIMENTAL SYSTEM: KIT exon 17 N822K (Homo sapiens, UniProt P10721, N822K)
- Construct: cancer cell lines expressing disease-relevant endogenous KIT mutations; host or cells: Kasumi-1
- Sequence (P10721 26-976 N822K): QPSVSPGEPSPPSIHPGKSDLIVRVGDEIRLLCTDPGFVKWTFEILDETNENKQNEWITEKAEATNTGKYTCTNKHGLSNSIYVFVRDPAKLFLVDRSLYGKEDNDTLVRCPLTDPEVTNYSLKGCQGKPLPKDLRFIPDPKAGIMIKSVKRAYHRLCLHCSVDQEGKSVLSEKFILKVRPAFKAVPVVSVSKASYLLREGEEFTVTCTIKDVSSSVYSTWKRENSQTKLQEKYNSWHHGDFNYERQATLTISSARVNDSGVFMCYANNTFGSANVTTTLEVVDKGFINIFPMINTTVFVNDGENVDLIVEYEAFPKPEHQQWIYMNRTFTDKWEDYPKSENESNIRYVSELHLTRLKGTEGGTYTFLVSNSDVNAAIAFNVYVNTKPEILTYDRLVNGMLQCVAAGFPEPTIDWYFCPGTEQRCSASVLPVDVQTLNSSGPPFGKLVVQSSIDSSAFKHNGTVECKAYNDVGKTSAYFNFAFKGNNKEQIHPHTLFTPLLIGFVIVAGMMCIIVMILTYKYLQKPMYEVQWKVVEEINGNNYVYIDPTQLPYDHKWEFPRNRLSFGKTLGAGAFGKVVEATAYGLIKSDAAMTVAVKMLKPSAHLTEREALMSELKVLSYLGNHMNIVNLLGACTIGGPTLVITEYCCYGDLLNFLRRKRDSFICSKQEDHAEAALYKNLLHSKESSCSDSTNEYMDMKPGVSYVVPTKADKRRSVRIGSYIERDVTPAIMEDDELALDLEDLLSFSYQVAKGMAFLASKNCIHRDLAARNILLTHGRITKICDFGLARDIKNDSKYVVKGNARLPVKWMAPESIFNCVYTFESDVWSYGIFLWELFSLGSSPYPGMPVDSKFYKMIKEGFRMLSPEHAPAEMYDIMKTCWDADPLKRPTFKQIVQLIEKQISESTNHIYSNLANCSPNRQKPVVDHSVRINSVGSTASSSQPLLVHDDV
- PROTOCOL NOTES: KIT autophosphorylation (Y703) in Kasumi-1 cells (Luminex)
- Type: cell-based
- PARTICULARS: Kasumi-1 (KIT exon 17 N822K); n=2; read-out: Inhibition of KIT autophosphorylation (Y703) IC50 ± SD
pIC50: −log10 of the molar value.

[
  {
    "MOLECULE": "COCCOc1cc(F)c2c(Nc3ccc(NC(=O)Cn4cc(C(C)C)nn4)cc3)ncnc2c1.Cc1ccc(S(=O)(=O)O)cc1 [NB003, reference compound]",
    "pIC50": 8.10
  }
]

----------
- EXPERIMENTAL SYSTEM: KIT exon 11 del560-576/exon 13 V654A (Homo sapiens, UniProt P10721, DEL560-576/V654A)
- Construct: cancer cell lines expressing disease-relevant endogenous KIT mutations; endogenous in cells; host or cells: GIST430/654
- Sequence (P10721 with tags, fused parts or gaps DEL560-576/V654A): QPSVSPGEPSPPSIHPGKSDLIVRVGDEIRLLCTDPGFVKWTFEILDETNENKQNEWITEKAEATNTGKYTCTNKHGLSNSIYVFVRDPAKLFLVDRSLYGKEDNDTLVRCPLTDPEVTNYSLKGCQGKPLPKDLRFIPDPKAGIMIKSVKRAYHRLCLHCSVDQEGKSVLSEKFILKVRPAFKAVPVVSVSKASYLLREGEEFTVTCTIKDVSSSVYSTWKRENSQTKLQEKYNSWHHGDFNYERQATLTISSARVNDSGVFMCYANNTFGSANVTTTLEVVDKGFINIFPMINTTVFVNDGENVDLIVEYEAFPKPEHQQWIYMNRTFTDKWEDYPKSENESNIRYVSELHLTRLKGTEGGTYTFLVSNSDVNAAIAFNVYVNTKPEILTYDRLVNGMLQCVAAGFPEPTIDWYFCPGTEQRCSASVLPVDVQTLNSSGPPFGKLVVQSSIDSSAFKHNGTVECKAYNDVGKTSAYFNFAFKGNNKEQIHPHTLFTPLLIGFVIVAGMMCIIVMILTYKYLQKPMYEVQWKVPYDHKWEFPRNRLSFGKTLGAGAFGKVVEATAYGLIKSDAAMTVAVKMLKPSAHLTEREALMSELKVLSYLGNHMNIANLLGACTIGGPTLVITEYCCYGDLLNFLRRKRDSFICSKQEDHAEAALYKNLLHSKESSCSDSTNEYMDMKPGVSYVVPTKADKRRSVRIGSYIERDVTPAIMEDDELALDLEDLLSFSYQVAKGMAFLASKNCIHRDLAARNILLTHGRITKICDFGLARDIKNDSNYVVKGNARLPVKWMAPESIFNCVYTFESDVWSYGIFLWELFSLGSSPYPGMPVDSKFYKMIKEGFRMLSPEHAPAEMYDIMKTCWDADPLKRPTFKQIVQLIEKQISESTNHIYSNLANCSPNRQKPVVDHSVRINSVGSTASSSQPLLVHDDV
- PROTOCOL NOTES: KIT autophosphorylation (Y703) in GIST430/654 cells (Luminex)
- Assay type: cell-based
- PARTICULARS: GIST430/654 (KIT exon 11/13 del.560-576 / V654A); n=2; read-out: Inhibition of KIT autophosphorylation (Y703) IC50 ± SD

[
  {
    "COMPOUND": "COCCOc1cc(F)c2c(Nc3ccc(NC(=O)Cn4cc(C(C)C)nn4)cc3)ncnc2c1.Cc1ccc(S(=O)(=O)O)cc1 [NB003, reference compound]",
    "IC50": "43 nM"
  }
]
